Hey, just so you know, these numbers are from patent US9815796B2.

# assayed target: Rhesus PDE2A3 (Macaca mulatta, UniProt B3VTJ2)
# Sequence (B3VTJ2 1-941): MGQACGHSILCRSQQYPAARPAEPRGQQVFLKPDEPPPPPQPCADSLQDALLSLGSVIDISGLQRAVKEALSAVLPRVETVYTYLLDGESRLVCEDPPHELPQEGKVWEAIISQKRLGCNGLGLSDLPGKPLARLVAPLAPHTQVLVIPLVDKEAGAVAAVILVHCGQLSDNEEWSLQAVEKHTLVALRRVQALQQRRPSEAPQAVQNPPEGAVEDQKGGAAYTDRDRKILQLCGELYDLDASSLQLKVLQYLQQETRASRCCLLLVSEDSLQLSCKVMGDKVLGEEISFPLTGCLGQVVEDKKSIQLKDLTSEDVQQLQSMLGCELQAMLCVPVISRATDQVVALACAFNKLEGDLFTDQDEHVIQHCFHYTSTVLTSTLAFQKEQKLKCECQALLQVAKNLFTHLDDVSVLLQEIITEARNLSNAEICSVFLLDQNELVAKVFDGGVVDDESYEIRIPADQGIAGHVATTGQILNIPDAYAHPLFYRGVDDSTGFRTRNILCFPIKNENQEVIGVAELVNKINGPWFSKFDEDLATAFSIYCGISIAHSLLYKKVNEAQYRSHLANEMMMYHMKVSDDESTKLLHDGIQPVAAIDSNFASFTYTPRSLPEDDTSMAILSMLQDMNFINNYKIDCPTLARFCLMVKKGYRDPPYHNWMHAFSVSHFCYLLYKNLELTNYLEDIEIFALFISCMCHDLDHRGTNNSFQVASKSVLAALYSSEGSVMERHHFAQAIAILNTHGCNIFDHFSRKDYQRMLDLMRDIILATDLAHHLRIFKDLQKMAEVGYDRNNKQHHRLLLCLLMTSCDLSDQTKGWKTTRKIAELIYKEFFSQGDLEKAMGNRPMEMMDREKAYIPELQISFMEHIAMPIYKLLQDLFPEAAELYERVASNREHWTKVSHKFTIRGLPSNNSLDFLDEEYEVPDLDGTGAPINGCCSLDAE
# assay explanation: PDE2 fluorescence polarization (IMAP FP) inhibition assay, rhesus enzyme
# Format: biochemical, rhesus macaque
# settings: Rhesus PDE2, Lab B; read-out: Rhesus PDE2 Ki (nM) - Lab B
Recorded Ki for the following molecules

molecule | Ki, nM
CC[C@@H](NC(=O)c1cc(=O)[nH]c(C(C)(C)c2ccc(OC)cc2)n1)c1ccc(SC(F)(F)F)c(F)c1 | 38
CC(C)[C@@H](NC(=O)c1cc(=O)[nH]c(-c2ccccc2)n1)c1ccc(C(F)(F)F)cc1 | 3.5
C[C@@H](NC(=O)c1cc(=O)[nH]c(-c2ncccn2)n1)c1ccc(SC(F)(F)F)c(F)c1 | 1.8
Cc1nc(C(=O)NC(C)(C)c2ccc(S(F)(F)(F)(F)F)cc2)cc(=O)[nH]1 | 129
COc1ccc(Cc2nc(C(=O)N[C@@H](c3ccc(S(F)(F)(F)(F)F)cc3)C(C)C)cc(=O)[nH]2)cc1F | 2.1
COC(=O)c1ccc([C@@H](C)NC(=O)c2cc(=O)[nH]c(-c3ccccc3)n2)cc1 | 173
CC1([C@@H](NC(=O)c2cc(=O)[nH]c(C3CC3)n2)c2ccc(OC(F)F)cc2)CC1 | 8
COc1ccc(Cc2nc(C(=O)N[C@@H](c3ccc(C(F)(F)F)cc3)C(C)C)cc(=O)[nH]2)cc1F | 1.6
COc1ccc(C(C)(C)c2nc(C(=O)N[C@@H](c3ccc(SC(F)(F)F)cc3)C(C)C)cc(=O)[nH]2)cc1 | 43
O=C(N[C@@H](c1ccc(S(F)(F)(F)(F)F)cc1)C1CC1)c1cc(=O)[nH]c(C2CC2)n1 | 8.2
C[C@H](NC(=O)c1cc(=O)[nH]c(-c2ccccc2)n1)c1ccc(Cl)cc1 | 2220
CC(C)[C@@H](NC(=O)c1cc(=O)[nH]c(C2CC2)n1)c1ccc(SC(F)(F)F)c(F)c1 | 2.4
Cc1nc(C(=O)N[C@@H](c2ccc(C3CC3)c(F)c2)C(C)(C)C)cc(=O)[nH]1 | 1.9
CC(NC(=O)c1cc(=O)[nH]c(-c2ccccc2)n1)c1ccccc1-c1ccccc1 (stereo not drawn) | 1770
CC(NC(=O)c1cc(=O)[nH]c(-c2ccccc2)n1)c1cccc(OC(F)(F)F)c1 (stereo not drawn) | 1840
